target_under_test: CCXCKR2 receptor (Homo sapiens, UniProt P25106)
Construct: expressed in transfected cells; host or cells: MDA-MB-435S transfected with pcDNA3.1(+)-hRDC1 and/or MCF-7 (endogenous receptor)
Sequence (P25106 whole entry): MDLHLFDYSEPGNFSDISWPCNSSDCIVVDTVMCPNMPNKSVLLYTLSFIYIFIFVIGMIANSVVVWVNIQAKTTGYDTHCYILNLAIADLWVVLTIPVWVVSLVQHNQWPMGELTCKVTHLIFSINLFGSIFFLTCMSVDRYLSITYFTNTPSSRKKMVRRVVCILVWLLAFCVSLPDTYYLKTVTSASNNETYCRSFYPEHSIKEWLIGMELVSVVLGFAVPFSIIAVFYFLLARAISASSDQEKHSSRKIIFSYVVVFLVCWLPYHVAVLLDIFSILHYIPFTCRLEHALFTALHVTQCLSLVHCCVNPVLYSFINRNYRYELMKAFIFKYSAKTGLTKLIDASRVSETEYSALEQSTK
test_name: Displacement of 125I-labeled SDF-1 from the CCXCKR2 receptor on MCF-7 and/or CCXCKR2-transfected MDA-MB-435S cells (radioligand binding, filtration)
condition_info: 125I SDF-1, 3 hr at 4° C., MCF-7 and/or MDA-MB-435S cells; read-out: Activity (concentration displacing at least 50% of the SDF-1 from the CCXCKR2 receptor)
Here, each record is paired with measured IC50 data.

Completed entries (count: 3):
                         chemical_structure                         target_under_test  recorded_measurement
0  Cc1cc(C(=O)c2cn(Cc3cccc(CO)n3)c3ccccc3c2=O)cnc1C  CCXCKR2 receptor (Homo sapiens, UniProt P25106)         100 to 500 nM
1  Cc1cc(C(=O)c2cn(Cc3cccc(Br)n3)c3ccccc3c2=O)cnc1C  CCXCKR2 receptor (Homo sapiens, UniProt P25106)              < 100 nM
2  COc1cc(C(=O)c2cn(Cc3cccc(Br)n3)c3ccccc3c2=O)ccc1Cl  CCXCKR2 receptor (Homo sapiens, UniProt P25106)              < 100 nM

Tested on CCXCKR2 receptor (Homo sapiens, UniProt P25106), the item "O=C(c1ccccc1C(=O)N1CCC1)c1cn(Cc2cccc(Br)n2)c2ccccc2c1=O" showed IC50 equal to < 100 nM
